- Tested on: AML cell lines
- EXPERIMENT_DESCRIPTION: CellTiter-Glo cell viability across the cell line panel
- Assay type: cell-based, human
- RUN_CONDITIONS: Homo sapiens, read-out: IC50 values in sensitive AML cell lines
pIC50: −log10 of the molar value.

# CPD_SMILES, pIC50
rows = [
    ("CC(C)[C@H](N)C(=O)N1CCC[C@H]1B(O)O", "6.69 to 8.22"),
]
